- study target: T1, HLA-B07:02 (human)
- T1 construct: Stability assay: E. coli-expressed biotinylated heavy chain with 125I-labelled b2m; MS: BAP-tagged HLA in HEK293T cells; Treated as one molecule
- procedure text: competition vs radiolabeled peptide on purified HLA; measured IC50
measurement name: IC50 (nM)

Reference set, count: 2
binder=KPKRDGYMF recorded_value=28.2
binder=GPPARVPAV recorded_value=282

[I] MFATLQRSSL
[II] KPKRDGYMFL
[III] FATLQRSSL
Query: // ascending sort on recorded IC50 Answer format: the labels, in the requested order.
Result: III, II, I
